# assay-system: nucleolin expressed on the surface of human cancer cell lines (human, UniProt P19338)
# procedure-details: cell-based or functional assay
Lab note: cut-off is 4 µM. Strictly less in IC50 of cytotoxicity (MTT), MDA-MB-435S breast cancer cells, 4 h is fulfilled. Exactly 4 µM or more is not fulfilled.

IN: IC50 of cytotoxicity (MTT), MDA-MB-435S breast cancer cells, 4 h under 4 µM? Item: KFAKFAKKFAKFAKKFAKKDEPQRRSARLSAK [EP-301]
OUT: not fulfilled

IN: Say whether its IC50 of cytotoxicity (MTT), MDA-MB-435S breast cancer cells, 4 h is strictly beneath 4 µM. Entry: KFAKFAKKFAKFAKKFAKKRAPQRRSARLSAK [KFAKFAKKFAKFAKKFAKK19RAPQRRSARLSAK32]
OUT: not fulfilled

IN: In plain terms, does KFAKFAKKFAKFAKKFAKRLQRRFARLFAK [KFAKFAKKFAKFAKKFAKR19LQRRFARLFAK30] come in under 4 µM for IC50 of cytotoxicity (MTT), MDA-MB-435S breast cancer cells, 4 h?
OUT: fulfilled

IN: Is 4 µM strictly greater than the binder's reported IC50 of cytotoxicity (MTT), MDA-MB-435S breast cancer cells, 4 h? binder: KFAKFAKKFAKFAKKFAKVARLQRRFA [KFAKFAKKFAKFAKKFAKV19ARLQRRFA27]
OUT: fulfilled

IN: Confirm or reject: IC50 of cytotoxicity (MTT), MDA-MB-435S breast cancer cells, 4 h of KFAKFAKKFAKFAKKFAKFARLFAK [KFAKFAKKFAKFAKKFAKF19ARLFAK25] lies strictly below 4 µM
OUT: fulfilled

IN: IC50 of cytotoxicity (MTT), MDA-MB-435S breast cancer cells, 4 h under 4 µM? Item: KFAKFAKKFAKFAKKFAKRARLQ [KFAKFAKKFAKFAKKFAKR19ARLQ23]
OUT: fulfilled
